Reference source: patent US20220073604A1

# Study Target: T1, cynomolgus monkey IL-6 (cynomolgus monkey, UniProt P79341 28-212, limits assumed)
# T1 construct: also called HIS-cyIL-6
# Experimental Protocol: SPR; purified Fab
Observable: koff (s⁻¹)
Give your result in s⁻¹ as a bare value.

Qu. Tell me the measured koff of Fab 20A4 (Fab, V domains shown, Fab) VH: EVQLQESGPGLVKPSQTLSLTCTVSGGSITTRYYAWSWIRQPPGKGLEWMGVIDYDGDTYYSPSLKSRTSISWDTSKNQFSLQLSSVTPEDTAVYYCARDPDVVTGFHYDYWGQGTQVTVSS VL: LNFMLTQPPSVSGTLGKTVTISCAGTSSDIGGYNYVSWYQQLPGTAPKLLIHRVSTRASGIPDRFSGSKSGNTASLTISGLRSEDEANYYCASYRNFNNAVFGGGTQLTVLG , please.
Ans. 0.00075

Qu. Also Fab 41E10/35B1 (Fab, V domains shown, VL-shuffled Fab of 17F10) VH: EVQLQESGPGLVKPSQTLSLTCTVSGGSIATSYYAWSWIRQPPGKGLEWMGVIDYDGDTYYKPSLKSRTSISRDTSKNQFSLQLSSVTPEDTAVYYCARAGLGDSYYLGTYYAMDYWGKGTLVTVSS VL: QAVLTQPPSMSGTLGKTLTISCNGTSSDIGSGNYVSWYQQLPGTTPKLLIEGVTTRVSGIPDRFSGSKSDNTASLTISGLQSEDEATYYCASYRETNNVVFGGGTHLTVLG ?
Ans. 0.00012

Qu. Now this one: Fab 17F10 (Fab, V domains shown, Fab; also called 17F10 pur Fab 68 nM) VH: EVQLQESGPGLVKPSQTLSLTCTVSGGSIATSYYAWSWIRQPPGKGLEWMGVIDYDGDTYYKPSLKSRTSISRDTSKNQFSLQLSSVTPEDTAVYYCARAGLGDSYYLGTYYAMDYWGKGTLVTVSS VL: QAGLTQPPSVSGSPGKTVTISCAGTTSDVGTGNFVSWYQQLPGMAPKLLIYDVNKRASGIADRFSGSKSGNTASLTISGLQSEDEADYYCASYRSLNNVVFGGGTHLTVLG
Ans. 0.0007

Qu. Also Fab 18C11 (Fab, V domains shown, Fab) VH: EVQLVESGGGLVQPGGSLRLSCAASGFTFSSYAMSWVRQAPGKGLEWVSAINSGGGSTSYADSVKGRFTISRDNAKNTLYLQMNSLKPEDTAVYYCAKEGDTGWKDPMYDYWGQGTQVTVSS VL: QSVVTQPSALSVTLGQTAKITCQGGGLRSSYAHWYQQKPGQAPVLVIYDDDSRPSGIPERFSGSSSGGRATLTISGAQAEDEGDYYCQSADSSGNAAVFGGGTHLTVLG , if possible.
Ans. 0.00085
